- Tested on: KM12
- test-description: Growth inhibition of human KM12 cells after 48 hrs
- Format: functional
- assay-setup: KM12, 48 h, read-out: pTGI (converted)
I'd appreciate it if you could supply TGI values for the items below.
Your answer should be a plain number; it is taken to be in µM.

Challenge: Form field: reported TGI of COc1ccc(N(CC(=O)NCCC[Te]c2ccccc2)C(=O)CCSC2=C(C)C(=O)c3ccccc3C2=O)cc1
Response given: 1.51

Challenge: Need TGI, item COc1ccc(N(CC(=O)NCCC[Te]c2ccccc2)C(=O)c2ccccc2)cc1
Response given: 11.7

Challenge: // query TGI value for entry CC1=C(SCCC(=O)OCC(=O)NCCC[Te]c2ccccc2)C(=O)c2ccccc2C1=O
Response given: 12.6

Challenge: Query: TGI; subject: COc1ccc(N(CC(=O)NCCC[Te]c2ccccc2)C(=O)CNC(=O)OC(C)(C)C)cc1
Response given: 11.5
